Reference for the values: the kinase profiling compilation of Christmann-Franck et al. (2016)

# EXPERIMENTAL SYSTEM: ERBB4 (human) (UniProt Q15303)
# Sequence (Q15303 whole entry, looked up): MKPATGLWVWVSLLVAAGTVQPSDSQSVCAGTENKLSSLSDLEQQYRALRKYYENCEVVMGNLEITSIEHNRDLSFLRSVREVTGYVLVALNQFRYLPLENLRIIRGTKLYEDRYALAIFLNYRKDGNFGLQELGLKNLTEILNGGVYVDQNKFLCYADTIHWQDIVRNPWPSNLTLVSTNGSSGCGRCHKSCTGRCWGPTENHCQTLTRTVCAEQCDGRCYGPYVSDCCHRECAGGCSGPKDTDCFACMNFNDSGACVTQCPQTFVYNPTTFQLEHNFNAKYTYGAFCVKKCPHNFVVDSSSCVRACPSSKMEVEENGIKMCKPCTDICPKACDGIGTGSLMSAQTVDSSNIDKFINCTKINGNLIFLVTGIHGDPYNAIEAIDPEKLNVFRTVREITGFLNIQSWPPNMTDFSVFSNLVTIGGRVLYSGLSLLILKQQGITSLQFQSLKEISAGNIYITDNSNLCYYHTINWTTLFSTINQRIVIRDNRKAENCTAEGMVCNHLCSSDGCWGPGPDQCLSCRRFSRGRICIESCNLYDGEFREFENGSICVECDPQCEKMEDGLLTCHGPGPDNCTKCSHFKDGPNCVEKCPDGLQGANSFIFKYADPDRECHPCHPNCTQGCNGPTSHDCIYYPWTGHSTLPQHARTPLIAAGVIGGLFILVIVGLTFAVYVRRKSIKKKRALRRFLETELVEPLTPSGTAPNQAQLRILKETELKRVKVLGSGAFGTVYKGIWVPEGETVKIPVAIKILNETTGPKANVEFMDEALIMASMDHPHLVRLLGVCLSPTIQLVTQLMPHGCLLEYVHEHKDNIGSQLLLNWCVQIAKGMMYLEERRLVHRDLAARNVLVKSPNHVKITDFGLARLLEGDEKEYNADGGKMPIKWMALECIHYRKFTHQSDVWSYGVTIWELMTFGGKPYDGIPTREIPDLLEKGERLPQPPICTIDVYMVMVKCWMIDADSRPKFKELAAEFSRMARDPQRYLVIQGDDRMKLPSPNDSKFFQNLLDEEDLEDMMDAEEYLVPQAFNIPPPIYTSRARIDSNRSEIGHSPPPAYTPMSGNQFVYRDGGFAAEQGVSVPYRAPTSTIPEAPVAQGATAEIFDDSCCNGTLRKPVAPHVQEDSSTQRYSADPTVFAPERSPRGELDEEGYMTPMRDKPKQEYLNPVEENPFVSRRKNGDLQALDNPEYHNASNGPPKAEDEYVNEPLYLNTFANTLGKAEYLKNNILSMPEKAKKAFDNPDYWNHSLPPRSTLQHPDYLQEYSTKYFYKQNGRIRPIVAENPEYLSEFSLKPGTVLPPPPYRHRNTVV
# TEST DETAILS: KINOMEscan competition binding
# RUN CONDITIONS: compound 10.0 µM
VALUE KIND: kinase still bound, per cent of control

Known kinase still bound, per cent of control results, listed for orientation:
>  <RECORD SMILES>
N#Cc1ccc(-c2cnc3[nH]cc(NC(=O)c4cccnc4)c3c2)cc1

>  <kinase still bound, per cent of control>
no effect (inactive)

$$$$
>  <RECORD SMILES>
Nc1ncnc2c1c(-c1cccc(O)c1)cn2C1CCNCC1

>  <kinase still bound, per cent of control>
0%

$$$$
>  <RECORD SMILES>
Cc1ccc(NC(=O)c2cccc(N3CCCCC3)c2)cc1-c1ccc(C(=O)NCC2CC2)cc1

>  <kinase still bound, per cent of control>
no effect (inactive)

$$$$
>  <RECORD SMILES>
O=C1Nc2ccccc2/C1=C/c1ccc[nH]1

>  <kinase still bound, per cent of control>
no effect (inactive)

$$$$
>  <RECORD SMILES>
Cc1cc(Nc2cc(N3CCN(C)CC3)nc(Sc3ccc(NC(=O)C4CC4)cc3)n2)[nH]n1

>  <kinase still bound, per cent of control>
no effect (inactive)

$$$$
>  <RECORD SMILES>
c1ccc(-c2n[nH]cc2-c2ccnc3ccccc23)nc1

>  <kinase still bound, per cent of control>
no effect (inactive)

$$$$
>  <RECORD SMILES>
Cc1ccc(C(=O)Nc2cccc(C(C)(C)C)c2)cc1-c1ccc(C(=O)NCC2CC2)cc1

>  <kinase still bound, per cent of control>
no effect (inactive)

$$$$
>  <RECORD SMILES>
O=C(Nc1n[nH]c2nc(-c3cccc(O)c3)ccc12)C1CC1

>  <kinase still bound, per cent of control>
no effect (inactive)

$$$$
>  <RECORD SMILES>
NC(=O)c1ccc(-c2cc(C(N)=O)c(N)c(-c3ccc(S(N)(=O)=O)cc3)c2)cc1

>  <kinase still bound, per cent of control>
no effect (inactive)

$$$$
>  <RECORD SMILES>
NC(=O)c1ccc(Nc2cc(-c3ccc(F)cc3)[nH]n2)cc1

>  <kinase still bound, per cent of control>
no effect (inactive)

$$$$

Sure, the documented kinase still bound, per cent of control for CCS(=O)(=O)Nc1ccc2c(c1)[C@H](/C(=N/c1ccc(CN3CCCCC3)cc1)c1ccccc1)C(=O)N2 is 34.7%

Sure, the documented kinase still bound, per cent of control for NC(=O)Nc1sc(-c2ccc(F)cc2)cc1C(N)=O is no effect (inactive)

Sure, the documented kinase still bound, per cent of control for CC(=O)c1c(-c2ccncc2)[nH]c(-c2ccncc2)c1C is no effect (inactive)

###

# EXPERIMENTAL SYSTEM: AKT2 (human)
# TEST DETAILS: KINOMEscan competition binding
# RUN CONDITIONS: compound 10.0 µM
VALUE KIND: kinase still bound, per cent of control

Known kinase still bound, per cent of control results, listed for orientation:
>  <RECORD SMILES>
NC(=O)Nc1sc(-c2ccc(F)cc2)cc1C(N)=O

>  <kinase still bound, per cent of control>
no effect (inactive)

$$$$
>  <RECORD SMILES>
CN(C)c1ccc(-c2cc3ncccc3c(NCCCCN)n2)cc1

>  <kinase still bound, per cent of control>
no effect (inactive)

$$$$
>  <RECORD SMILES>
NC(=O)c1ccc(Nc2cc(-c3ccc(F)cc3)[nH]n2)cc1

>  <kinase still bound, per cent of control>
no effect (inactive)

$$$$
>  <RECORD SMILES>
O=C(Nc1n[nH]c2nc(-c3cccc(O)c3)ccc12)C1CC1

>  <kinase still bound, per cent of control>
no effect (inactive)

$$$$
>  <RECORD SMILES>
Cc1ccc(C(=O)Nc2cccc(C(C)(C)C)c2)cc1-c1ccc(C(=O)NCC2CC2)cc1

>  <kinase still bound, per cent of control>
no effect (inactive)

$$$$
>  <RECORD SMILES>
Nc1ncnc2c1c(-c1cccc(O)c1)cn2C1CCNCC1

>  <kinase still bound, per cent of control>
no effect (inactive)

$$$$

Summary: Cc1ccc(NC(=O)c2cccc(N3CCCCC3)c2)cc1-c1ccc(C(=O)NCC2CC2)cc1 , AKT2 (human), kinase still bound, per cent of control = no effect (inactive)

Summary: NC(=O)c1ccc(-c2cc(C(N)=O)c(N)c(-c3ccc(S(N)(=O)=O)cc3)c2)cc1 , AKT2 (human), kinase still bound, per cent of control = no effect (inactive)

Summary: c1ccc(-c2n[nH]cc2-c2ccnc3ccccc23)nc1 , AKT2 (human), kinase still bound, per cent of control = no effect (inactive)

Summary: Cc1cc(Nc2cc(N3CCN(C)CC3)nc(Sc3ccc(NC(=O)C4CC4)cc3)n2)[nH]n1 , AKT2 (human), kinase still bound, per cent of control = no effect (inactive)

###

# EXPERIMENTAL SYSTEM: MAP4K1 (human)
# TEST DETAILS: KINOMEscan competition binding
# RUN CONDITIONS: compound 10.0 µM
VALUE KIND: kinase still bound, per cent of control

>  <RECORD SMILES>
O=C(Nc1n[nH]c2nc(-c3cccc(O)c3)ccc12)C1CC1

>  <kinase still bound, per cent of control>
no effect (inactive)

$$$$
>  <RECORD SMILES>
NC(=O)c1ccc(Nc2cc(-c3ccc(F)cc3)[nH]n2)cc1

>  <kinase still bound, per cent of control>
no effect (inactive)

$$$$
>  <RECORD SMILES>
NC(=O)c1ccc(-c2cc(C(N)=O)c(N)c(-c3ccc(S(N)(=O)=O)cc3)c2)cc1

>  <kinase still bound, per cent of control>
no effect (inactive)

$$$$
>  <RECORD SMILES>
Cc1ccc(C(=O)Nc2cccc(C(C)(C)C)c2)cc1-c1ccc(C(=O)NCC2CC2)cc1

>  <kinase still bound, per cent of control>
no effect (inactive)

$$$$
>  <RECORD SMILES>
Cc1ccc(NC(=O)c2cccc(N3CCCCC3)c2)cc1-c1ccc(C(=O)NCC2CC2)cc1

>  <kinase still bound, per cent of control>
no effect (inactive)

$$$$
>  <RECORD SMILES>
CC(=O)c1c(-c2ccncc2)[nH]c(-c2ccncc2)c1C

>  <kinase still bound, per cent of control>
no effect (inactive)

$$$$
>  <RECORD SMILES>
Nc1ncnc2c1c(-c1cccc(O)c1)cn2C1CCNCC1

>  <kinase still bound, per cent of control>
0%

$$$$
>  <RECORD SMILES>
c1ccc(-c2n[nH]cc2-c2ccnc3ccccc23)nc1

>  <kinase still bound, per cent of control>
no effect (inactive)

$$$$

Lab note: next compound to report on.
Sure, the documented kinase still bound, per cent of control for CCS(=O)(=O)Nc1ccc2c(c1)[C@H](/C(=N/c1ccc(CN3CCCCC3)cc1)c1ccccc1)C(=O)N2 is 0.5%

###

# EXPERIMENTAL SYSTEM: STK11 (human)
# TEST DETAILS: KINOMEscan competition binding
# RUN CONDITIONS: compound 10.0 µM
VALUE KIND: kinase still bound, per cent of control

>  <RECORD SMILES>
Cc1cc(Nc2cc(N3CCN(C)CC3)nc(Sc3ccc(NC(=O)C4CC4)cc3)n2)[nH]n1

>  <kinase still bound, per cent of control>
0%

$$$$
>  <RECORD SMILES>
NC(=O)Nc1sc(-c2ccc(F)cc2)cc1C(N)=O

>  <kinase still bound, per cent of control>
0%

$$$$
>  <RECORD SMILES>
Cc1ccc(NC(=O)c2cccc(N3CCCCC3)c2)cc1-c1ccc(C(=O)NCC2CC2)cc1

>  <kinase still bound, per cent of control>
no effect (inactive)

$$$$
>  <RECORD SMILES>
c1ccc(-c2n[nH]cc2-c2ccnc3ccccc23)nc1

>  <kinase still bound, per cent of control>
no effect (inactive)

$$$$

Sure, the documented kinase still bound, per cent of control for Cc1ccc(C(=O)Nc2cccc(C(C)(C)C)c2)cc1-c1ccc(C(=O)NCC2CC2)cc1 is no effect (inactive)

Sure, the documented kinase still bound, per cent of control for Nc1ncnc2c1c(-c1cccc(O)c1)cn2C1CCNCC1 is no effect (inactive)

Sure, the documented kinase still bound, per cent of control for CC(=O)c1c(-c2ccncc2)[nH]c(-c2ccncc2)c1C is no effect (inactive)

Sure, the documented kinase still bound, per cent of control for CCS(=O)(=O)Nc1ccc2c(c1)[C@H](/C(=N/c1ccc(CN3CCCCC3)cc1)c1ccccc1)C(=O)N2 is 1%

Sure, the documented kinase still bound, per cent of control for NC(=O)c1ccc(-c2cc(C(N)=O)c(N)c(-c3ccc(S(N)(=O)=O)cc3)c2)cc1 is no effect (inactive)

###

# EXPERIMENTAL SYSTEM: ULK3 (human) (UniProt Q6PHR2)
# Sequence (Q6PHR2 whole entry, looked up): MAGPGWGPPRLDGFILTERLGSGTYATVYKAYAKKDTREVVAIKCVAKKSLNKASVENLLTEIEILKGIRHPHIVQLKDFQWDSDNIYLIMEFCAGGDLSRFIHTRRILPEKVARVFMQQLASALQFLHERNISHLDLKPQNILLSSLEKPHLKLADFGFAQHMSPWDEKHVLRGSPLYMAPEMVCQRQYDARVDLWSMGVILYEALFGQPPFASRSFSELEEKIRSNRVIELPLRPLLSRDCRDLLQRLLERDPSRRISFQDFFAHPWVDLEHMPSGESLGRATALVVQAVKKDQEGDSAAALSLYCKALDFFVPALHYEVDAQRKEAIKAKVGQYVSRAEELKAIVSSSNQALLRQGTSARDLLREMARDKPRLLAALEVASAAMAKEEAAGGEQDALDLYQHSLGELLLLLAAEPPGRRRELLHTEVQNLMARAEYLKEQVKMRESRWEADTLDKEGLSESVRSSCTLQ
# TEST DETAILS: KINOMEscan competition binding
# RUN CONDITIONS: compound 10.0 µM
VALUE KIND: kinase still bound, per cent of control

Known kinase still bound, per cent of control results, listed for orientation:
>  <RECORD SMILES>
CCS(=O)(=O)Nc1ccc2c(c1)[C@H](/C(=N/c1ccc(CN3CCCCC3)cc1)c1ccccc1)C(=O)N2

>  <kinase still bound, per cent of control>
0%

$$$$
>  <RECORD SMILES>
Nc1ncnc2c1c(-c1cccc(O)c1)cn2C1CCNCC1

>  <kinase still bound, per cent of control>
no effect (inactive)

$$$$
>  <RECORD SMILES>
CC(=O)c1c(-c2ccncc2)[nH]c(-c2ccncc2)c1C

>  <kinase still bound, per cent of control>
no effect (inactive)

$$$$
>  <RECORD SMILES>
NC(=O)c1ccc(Nc2cc(-c3ccc(F)cc3)[nH]n2)cc1

>  <kinase still bound, per cent of control>
no effect (inactive)

$$$$
>  <RECORD SMILES>
Cc1ccc(NC(=O)c2cccc(N3CCCCC3)c2)cc1-c1ccc(C(=O)NCC2CC2)cc1

>  <kinase still bound, per cent of control>
no effect (inactive)

$$$$
>  <RECORD SMILES>
O=C(Nc1n[nH]c2nc(-c3cccc(O)c3)ccc12)C1CC1

>  <kinase still bound, per cent of control>
no effect (inactive)

$$$$

Sure, the documented kinase still bound, per cent of control for c1ccc(-c2n[nH]cc2-c2ccnc3ccccc23)nc1 is no effect (inactive)

Sure, the documented kinase still bound, per cent of control for Cc1ccc(C(=O)Nc2cccc(C(C)(C)C)c2)cc1-c1ccc(C(=O)NCC2CC2)cc1 is no effect (inactive)
